biological target: Thyrotropin-releasing hormone receptor (Homo sapiens); test: qHTS for Small Molecule Agonists and Allosteric Enhancers of Human TRH Receptor: Validation Screen for Agonists (AID 493127); conditions: TRH receptor agonist cell assay; at 2 µM; hits give high values;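 further: intracellular calcium rise by fluo-8 fluorescence before TRH EC20 addition; 0% is about no effect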
Readout: activation (%)
Number only, in %; omit the unit.

For the compound CCCN1CCc2cccc3c2C1Cc1ccc(O)c(O)c1-3 (stereo not given) , give its measured activation value.
1.44

Report measured activation; entry is CN1CCC23CCCC[C@H]2C1Cc1ccc(O)cc13 (stereo not given in full)
0.625

Look up and report measured activation for this entry: `N#CC(=Cc1ccc(O)c(O)c1)C(N)=S`
3.19

Supply activation value. Item: CC1Cc2cc3c(cc2C(c2ccc(N)cc2)=NN1)OCO3 (stereo not given)
0.188

Tell me its activation given C[C@]12CC[C@H]3[C@@H](CCC4C[C@H](O)CC[C@@]43C)[C@@H]1CC[C@@H]2O (stereo not given in full) as the entry.
1.31

Answer with the recorded activation of CCCCN1C2CCC1CC(OC(c1ccc(F)cc1)c1ccc(F)cc1)C2 (stereo not given) only.
8.5

Please give the documented activation of `NCC#Cc1ccccc1`
1.69

Report activation, nothing else, for this compound: `O=C(OC1CCN(CCCl)CC1)C(c1ccccc1)c1ccccc1`
-9.25

Please supply the value of reported activation for the item Oc1cc2c(cc1O)[C@H]1c3ccccc3CNC1CC2 (stereo not given in full)
0.812

State, in one line, measured activation of `CC[C@@H](CO)NC(=O)[C@H]1C=C2c3cccc4c3c(cn4C)C[C@H]2N(C)C1`
-2.81

---

experiment: qHTS Assay for Identification of Small Molecule Inducers of Hypoxia Response (AID 2120); conditions: hypoxia response reporter cells, beta-lactamase ratio readout; series mostly up to 104 µM; further: 0% is about no effect
Records with an inconclusive call do not appear. Active and inactive are the calls of the source. Calls follow the shape of the dose curve; as a rule, active = well fitted curve in the direction sought with a large enough effect in the signal ratio, with a control signal flat (not every such curve was filed as active); inconclusive = small, poorly fitted or top-dose-only effect, or a change in a side signal; inactive = no such curve, though single readings can be large or run the other way; the % refers to the signal ratio.
Readout: outcome

Worked set:
{"Compound": "CCCC(=O)Cl", "Readout": "outcome", "Result": "inactive"}
{"Compound": "CCCCOC(=O)c1ccccc1C(=O)OCCCC", "Readout": "outcome", "Result": "inactive"}
{"Compound": "COc1ccc(N)cc1", "Readout": "outcome", "Result": "inactive"}
{"Compound": "C=C(Cl)Cl", "Readout": "outcome", "Result": "inactive"}
{"Compound": "c1nc[nH]n1", "Readout": "outcome", "Result": "inactive"}
{"Compound": "Clc1ccc2ccccc2c1", "Readout": "outcome", "Result": "inactive"}

Fill in reported outcome for this entry: `C=CCc1ccc(OC)cc1`
inactive

Give me measured outcome, please, for this compound: `CCOP(=S)(OCC)SCSC(C)(C)C`
inactive

Specify reported outcome for the compound shown: `COC1=CC(=O)O[C@@H](/C=C/c2ccc3c(c2)OCO3)C1`
inactive

---

test: Cell Viability - LYMP2-018 (AID 985); details: LYMP2-018 lymphoblastoid cells, viability (qHTS); series mostly up to 92.2 µM;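 further: compound exposure lasted 24 hr at 37 °C; nearly all actives have a fitted effect of over 50% in size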
Results filed as inconclusive are left out. The source made the active and inactive calls. Calls follow the shape of the dose curve; as a rule, active = well fitted cell-killing curve with a large enough effect; inconclusive = small, poorly fitted or top-dose-only effect; inactive = flat fitted curve, though single readings scatter.
Your response should consist of one outcome taken from active, inactive

Identify the outcome logged in this assay for the compound shown: `Nc1ccccc1Cl`
inactive

Test call, this compound: C=CC1CC=CCC1 (stereo not given)
inactive

# fetch the recorded call for `BrCCBr` here
inactive

Could you please tell me the result logged for `C[C@]12CC[C@H]3[C@@H](CCC4=CC(=O)CC[C@@]43C)[C@@H]1CC[C@@H]2O` in this assay?
inactive

Kindly provide the recorded test outcome for the following compound: `CCCCOCCOP(=O)(OCCOCCCC)OCCOCCCC`
inactive

Tell me the recorded outcome of this test for `C[C@H]1CCCC(=O)CCC/C=C/c2cc(O)cc(O)c2C(=O)O1` .
inactive

What did this assay record as the result for `C=CC(C)=O` ?
inactive

In this assay, the call recorded for `NC(=S)Nc1ccccc1` was what?
inactive

# outcome recorded in this test, key = `C=C(C)C#N`
inactive

What is the recorded call for this compound in the test? C=C(C)C(=O)OCC1CO1 (stereo not given)
inactive

# outcome recorded in this test, key = `c1ccc(N=Nc2ccccc2)cc1`
inactive

Look up the recorded call for `Cc1ccccc1N` in this test.
inactive

Please indicate how the test categorized `O=C=NC1CCCCC1` .
inactive

Recorded call for `COC(=O)NC(=S)Nc1ccccc1NC(=S)NC(=O)OC` ?
inactive

Check the results log: what was the call for `c1ccc(-c2ccccc2)cc1` ?
inactive

Please let me know the test result on file for `ClC(Cl)(Cl)c1ccccc1` .
inactive

How was `COP(=S)(OC)Oc1ccc([N+](=O)[O-])cc1` classified in this test?
inactive

Assay result, entry CC(O)CCl (stereo not given) — outcome?
inactive

Each compound tested received a call. Report the one for `C[N+](C)(C)Cc1ccccc1` .
inactive

Dear all, I need the recorded test outcome for `O=NN(CCO)CCO` , thank you.
inactive

Hi team, can someone confirm the assay call for `Clc1nc(Cl)nc(Nc2ccccc2Cl)n1` ?
inactive

What classification did `CCNc1nc(Cl)nc(NC(C)C)n1` end up with in this test?
inactive

Dear colleague, could you share the recorded outcome for `ClC(Cl)=C(Cl)C(Cl)=C(Cl)Cl` when you have a moment?
inactive

Record request — test call for `CCSC(=O)Cl`
inactive

Assay result, entry `Clc1nc(Cl)nc(Cl)n1` — outcome?
inactive

Would you mind telling me which call this test gave `CCC[CH2][Sn]([Cl])([Cl])[Cl]` ?
inactive

Dear colleague, could you share the recorded outcome for `CCOc1ccc(N)cc1` when you have a moment?
inactive

For this compound, state the assay outcome: `ClCBr`
inactive

Recorded call for COC1=CC(=O)OC(CCc2ccccc2)C1 (stereo not given) ?
inactive

// outcome(item) with item = `CCN(CC)c1ccccc1`
inactive

Hey, what did the test say about `CCOP(=S)(OCC)Oc1ccc([N+](=O)[O-])cc1` ?
inactive

For this compound, state the assay outcome: `C=CCOC(C)=O`
inactive

Look up the recorded call for `C=CCc1ccc2c(c1)OCO2` in this test.
inactive

# outcome recorded in this test, key = `CN=C=S`
inactive

Short answer needed: outcome of this test for `O=[N+]([O-])c1ccc(Cl)c(Cl)c1` ?
inactive

# lookup: test call for `N#CCCCl`
inactive

Call for entry `C=C(Cl)Cl` :
inactive

State the result this test recorded for `O=C(Cl)C(Cl)(Cl)Cl` .
inactive

Write down the call the test reported for this compound. Item: `CCCC(=O)Cl`
inactive

Test call for this compound, please: `Oc1ccc(Cl)cc1Cl`
inactive

Test call, this compound: `O=C1C(Cl)=C(Cl)C(=O)C(Cl)=C1Cl`
active

Lab log entry: `COc1ccc(N)cc1` — outcome as called in the assay?
inactive

So what was the verdict on `Brc1ccc(Oc2cc(Br)c(Br)cc2Br)c(Br)c1` in this test?
inactive

// param item: `COC1=CC(=O)O[C@@H](/C=C/c2ccc3c(c2)OCO3)C1` ; yields the recorded call
inactive

What outcome does the record of this test show for `Cc1ccc([N+](=O)[O-])cc1C` ?
inactive

What was the test verdict on OCC1CO1 (stereo not given) ?
inactive

Returns: the outcome recorded for `C/C=C/c1ccc2c(c1)OCO2` in this assay.
inactive

Tell me the assay call for OCC(Br)CBr (stereo not given) please.
inactive

Call for entry `Cc1cccc([N+](=O)[O-])c1` :
inactive

Identify the outcome logged in this assay for the compound shown: `c1ccc2c(c1)CCCC2`
inactive
